System: giant foxtail
test: Test B pre-/postemergence herbicide test
Type: in vivo, Setaria faberi
condition: Postemergence, 500 g ai/ha; scale 0 (no effect) to 100 (complete control)
Each entry below carries its recorded Foxtail, Giant plant response rating.

{"columns": ["smilesString", "Foxtail, Giant plant response rating"],
 "data": [
  ["C#CCOc1cccc(NC(=O)c2cc(C(C)(C)C)nn2CC)c1", 30],
  ["CCN(CC)C(=O)c1cccc(NC(=O)c2nn(C(C)(C)C)nc2C)c1", 40],
  ["CC(C)(C)n1nc(Br)c(C(=O)Nc2cccc(C(=O)N3CC=CC3)c2)n1", 40],
  ["C=CCN(CC=C)C(=O)c1cccc(NC(=O)c2nn(C(C)(C)C)nc2C)n1", 0]
]}
